- EXPERIMENTAL TARGET: GST-TMEM106B (truncated, comprising amino acids 122-210 of SEQ ID NO:1) (Homo sapiens, UniProt Q9NUM4)
- Sequence (Q9NUM4 122-210): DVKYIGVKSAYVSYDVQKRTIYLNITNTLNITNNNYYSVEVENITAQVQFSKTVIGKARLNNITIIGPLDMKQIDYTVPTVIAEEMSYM
- MEASUREMENT NOTES: Pre-mix epitope binning of anti-TMEM106B antibodies (Carterra / Lake Pharma)
- Format: binding
- Set-up: key: Bin 1: competes for binding to the same or overlapping TMEM106B region as the TM1, TM17, TM22, TM26, TM79, and/or TM82 antibodies; Bin 2: competes for binding to the same or overlapping TMEM106B region as the TM3, TM9, TM10, TM11, TM12, TM13, TM18, TM19, TM21, TM24, TM25, TM32, TM35, TM37, TM42, TM45, TM48, TM54, TM59, TM60, TM61, and/or TM76 antibodies; Bin 3: competes for binding to the same or overlapping TMEM106B region as the TM7, TM15, TM83, and/or TM84 antibodies; Bin 4: competes for binding to the same or overlapping TMEM106B region as the TMS, TM28, TM29, TM30, TM63, TM64, TM72, TM78, TM80, TM86, and/or TM88 antibodies; Bin 5: does not bind to a truncated TMEM106B comprising amino acids 122-210 of SEQ ID NO:1
- EXPERIMENTAL CONTEXT: competition for binding to truncated GST-TMEM106B (amino acids 122-210)

>  <MOLECULE>
TM-24: anti-TMEM106B monoclonal antibody; CDR-H1-3 SEQ ID NO: 12, 45, 88; CDR-L1-3 SEQ ID NO: 140, 170, 204 (antibody, V domains shown) VH: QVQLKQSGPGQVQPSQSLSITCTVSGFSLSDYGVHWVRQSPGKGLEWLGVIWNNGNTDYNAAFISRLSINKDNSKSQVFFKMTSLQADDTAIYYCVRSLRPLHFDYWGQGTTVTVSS VL: DIVMTQSPSSLTMSVGQKVTMNCKSSQSLLNSNNQQNYLAWYQQKPGQSPKLLVYFASIRESGVPDRFIGSGSGTDFTLTINSVQAEDLADYFCQQHYSTPFTFGSGTKLEIR

>  <epitope bin>
Bin 2

$$$$
>  <MOLECULE>
TM-26: anti-TMEM106B monoclonal antibody; CDR-H1-3 SEQ ID NO: 2, 56, 99; CDR-L1-3 SEQ ID NO: 139, 176, 203 (antibody, V domains shown) VH: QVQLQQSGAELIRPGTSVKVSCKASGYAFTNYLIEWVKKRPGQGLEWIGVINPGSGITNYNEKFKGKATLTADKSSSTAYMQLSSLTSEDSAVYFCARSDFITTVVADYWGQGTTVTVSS VL: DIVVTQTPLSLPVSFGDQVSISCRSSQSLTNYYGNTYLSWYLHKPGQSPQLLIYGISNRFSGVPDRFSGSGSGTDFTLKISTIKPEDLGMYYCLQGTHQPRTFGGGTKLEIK

>  <epitope bin>
Bin 1

$$$$
